# Target entity: RACK1A (RECEPTOR FOR ACTIVATED C KINASE 1A) (Arabidopsis thaliana, UniProt O24456)
# Construct: WD40 seven-bladed beta-propeller scaffold protein
# Sequence (O24456 whole entry): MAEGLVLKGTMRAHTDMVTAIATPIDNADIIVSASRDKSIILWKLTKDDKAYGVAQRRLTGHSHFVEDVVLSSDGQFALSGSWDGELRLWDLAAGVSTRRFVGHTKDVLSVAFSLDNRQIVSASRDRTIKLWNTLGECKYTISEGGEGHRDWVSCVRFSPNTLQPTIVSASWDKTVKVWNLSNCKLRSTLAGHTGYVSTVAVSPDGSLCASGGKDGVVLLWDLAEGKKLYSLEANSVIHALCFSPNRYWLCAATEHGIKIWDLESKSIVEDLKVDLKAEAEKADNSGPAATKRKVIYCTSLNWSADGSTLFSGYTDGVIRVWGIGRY
# Assay text: microscale thermophoresis (MST)
Endpoint: Kd (µM)
Respond with the bare value in µM.

Sample COc1cc(OC)cc(C(=O)Nc2ccc3ccccc3c2)c1 ; Kd observed: 32.8
